Where do these numbers come from? They come from PubChem BioAssay AID1963445.

Test system: MCF7 complex spheroid growth, % test/control
PROCEDURE DETAILS: Anticancer human tumor MCF7 cell line growth inhibition [Asc]; active means viability on the fitted dose curve at most 10% of control; inactive means the rest;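 further: spheroids exposed to compounds for 7 days; 100% = DMSO vehicle control wells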
TEST CONDITIONS: second compound 0.1 µM; first compound 3.16 µM
Description: Multicellular complex tumor spheroid response to apoptosis pathway targeting inhibitors Alrizomadlin, Pelcitoclax, and Dasminapant in combination with a variety of drugs and investigational agents in selected tumor cell lines […] Compounds. […] If the clinical Cmax for an agent had not been determined, the highest concentration tested was 10 microM. […]
// allowed return values: active, inactive

Use the examples below as a reference point.
1) C=C(F)C(=O)N1CCN(c2nc(OCC3CCCN3C)nc3c2CCN(c2cccc4cccc(Cl)c24)C3)CC1CC#N (stereo not given) + CNC(C)C(=O)NC1CN(S(=O)(=O)c2cccc(S(=O)(=O)N3CCC4CCC(C(=O)NC(c5ccccc5)c5ccccc5)N4C(=O)C(NC(=O)C(C)NC)C3)c2)CCC2CCC(C(=O)NC(c3ccccc3)c3ccccc3)N2C1=O = active
2) C#Cc1c(F)ccc2cc(O)cc(-c3ncc4c(N5CC6CCC(C5)N6)nc(OCC56CCCN5CC(F)C6)nc4c3F)c12 (stereo not given) + Cc1c(S(C)(=O)=O)c(-c2cc(F)cc(N3CCN(c4ccc(NS(=O)(=O)c5ccc(NC(CCN6CCC(C(=O)OCCCP(=O)(O)O)CC6)CSc6ccccc6)c(S(=O)(=O)C(F)(F)F)c5)cc4)CC3)c2)c(-c2ccc(Cl)cc2)n1C(C)C = inactive
3) C=CC(=O)N1CCN(c2nc(=O)n(-c3c(C)ccnc3C(C)C)c3nc(-c4c(O)cccc4F)c(F)cc23)C(C)C1 (stereo not given) + CNC(C)C(=O)NC1CN(S(=O)(=O)c2cccc(S(=O)(=O)N3CCC4CCC(C(=O)NC(c5ccccc5)c5ccccc5)N4C(=O)C(NC(=O)C(C)NC)C3)c2)CCC2CCC(C(=O)NC(c3ccccc3)c3ccccc3)N2C1=O = inactive
4) C=CC(=O)N1CCN(c2nc(=O)n(-c3c(C)ccnc3C(C)C)c3nc(-c4c(O)cccc4F)c(F)cc23)C(C)C1 (stereo not given) + Cc1c(S(C)(=O)=O)c(-c2cc(F)cc(N3CCN(c4ccc(NS(=O)(=O)c5ccc(NC(CCN6CCC(C(=O)OCCCP(=O)(O)O)CC6)CSc6ccccc6)c(S(=O)(=O)C(F)(F)F)c5)cc4)CC3)c2)c(-c2ccc(Cl)cc2)n1C(C)C = inactive

Field: next compound
Ask | Status in this test for O=C(c1cc(Cc2n[nH]c(=O)c3ccccc23)ccc1F)N1CCN(C(=O)C2CC2)CC1 + Cc1c(S(C)(=O)=O)c(-c2cc(F)cc(N3CCN(c4ccc(NS(=O)(=O)c5ccc(NC(CCN6CCC(C(=O)OCCCP(=O)(O)O)CC6)CSc6ccccc6)c(S(=O)(=O)C(F)(F)F)c5)cc4)CC3)c2)c(-c2ccc(Cl)cc2)n1C(C)C ?
Reply | inactive

---

Form field: viability, T/C (one value per entry).
Tested on: MCF7 complex spheroid growth, % test/control
PROCEDURE DETAILS: Anticancer human tumor MCF7 cell line growth inhibition [Asc];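 further: spheroids exposed to compounds for 7 days; 100% = DMSO vehicle control wells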
TEST CONDITIONS: second compound 0.316 µM; first compound 0.1 µM; hits give low values

1. COc1c(OCCCN2CCOCC2)ccc2c3n(c(=NC(=O)c4cnc(N)nc4)nc12)CCN3 + CNC(C)C(=O)NC1CN(S(=O)(=O)c2cccc(S(=O)(=O)N3CCC4CCC(C(=O)NC(c5ccccc5)c5ccccc5)N4C(=O)C(NC(=O)C(C)NC)C3)c2)CCC2CCC(C(=O)NC(c3ccccc3)c3ccccc3)N2C1=O = 10%

Ask | Specify viability, T/C for O=C(c1cc(Cc2n[nH]c(=O)c3ccccc23)ccc1F)N1CCN(C(=O)C2CC2)CC1 + Cc1c(S(C)(=O)=O)c(-c2cc(F)cc(N3CCN(c4ccc(NS(=O)(=O)c5ccc(NC(CCN6CCC(C(=O)OCCCP(=O)(O)O)CC6)CSc6ccccc6)c(S(=O)(=O)C(F)(F)F)c5)cc4)CC3)c2)c(-c2ccc(Cl)cc2)n1C(C)C , system MCF7 complex spheroid growth, % test/control.
Reply | 109%

Ask | Return reported viability, T/C for target or system MCF7 complex spheroid growth, % test/control, item C=CC(=O)N1CCN(c2nc(=O)n(-c3c(C)ccnc3C(C)C)c3nc(-c4c(O)cccc4F)c(F)cc23)C(C)C1 (stereo not drawn) + CNC(C)C(=O)NC1CN(S(=O)(=O)c2cccc(S(=O)(=O)N3CCC4CCC(C(=O)NC(c5ccccc5)c5ccccc5)N4C(=O)C(NC(=O)C(C)NC)C3)c2)CCC2CCC(C(=O)NC(c3ccccc3)c3ccccc3)N2C1=O .
Reply | 13.5%

---

System: MCF7 complex spheroid growth, % test/control
PROCEDURE DETAILS: Anticancer human tumor MCF7 cell line growth inhibition [Asc];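 further: spheroids exposed to compounds for 7 days; 100% = DMSO vehicle control wells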
TEST CONDITIONS: second compound 0.00949 µM; first compound 1 µM; hits give low values
Text: Multicellular complex tumor spheroid response to apoptosis pathway targeting inhibitors Alrizomadlin, Pelcitoclax, and Dasminapant in combination with a variety of drugs and investigational agents in selected tumor cell lines […] Compounds. […] If the clinical Cmax for an agent had not been determined, the highest concentration tested was 10 microM. […]
Some compounds, each annotated with its measured viability, T/C.
Dear colleague, please return just the value in %, with no unit written.

1) C=C(F)C(=O)N1CCN(c2nc(OCC3CCCN3C)nc3c2CCN(c2cccc4cccc(Cl)c24)C3)CC1CC#N (configuration not stated) + CCN1C(C(=O)NC23CCC(C(=O)O)(CC2)CC3)C(c2cccc(Cl)c2F)C2(C(=O)Nc3cc(Cl)ccc32)C12CCCCC2 = 89.8

Attention now shifts to the item below.
Ask | Look up viability, T/C of CNC(C)C(=O)NC1CN(S(=O)(=O)c2cccc(S(=O)(=O)N3CCC4CCC(C(=O)NC(c5ccccc5)c5ccccc5)N4C(=O)C(NC(=O)C(C)NC)C3)c2)CCC2CCC(C(=O)NC(c3ccccc3)c3ccccc3)N2C1=O (configuration not stated) + CCN1C(C(=O)NC23CCC(C(=O)O)(CC2)CC3)C(c2cccc(Cl)c2F)C2(C(=O)Nc3cc(Cl)ccc32)C12CCCCC2 and report it.
Reply | 15.5

---

System: MCF7 complex spheroid growth, % test/control
PROCEDURE DETAILS: Anticancer human tumor MCF7 cell line growth inhibition [Asc];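 further: spheroids exposed to compounds for 7 days; 100% = DMSO vehicle control wells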
TEST CONDITIONS: second compound 0.1 µM; first compound 3.16 µM; hits give low values
Excerpt: Multicellular complex tumor spheroid response to apoptosis pathway targeting inhibitors Alrizomadlin, Pelcitoclax, and Dasminapant in combination with a variety of drugs and investigational agents in selected tumor cell lines […] Compounds. […] If the clinical Cmax for an agent had not been determined, the highest concentration tested was 10 microM. […]
Below, each entry is listed alongside its reported viability, T/C.
The reply should contain only the number, in %.

Known results for molecules:
1. O=C(c1cc(Cc2n[nH]c(=O)c3ccccc23)ccc1F)N1CCN(C(=O)C2CC2)CC1 + CNC(C)C(=O)NC1CN(S(=O)(=O)c2cccc(S(=O)(=O)N3CCC4CCC(C(=O)NC(c5ccccc5)c5ccccc5)N4C(=O)C(NC(=O)C(C)NC)C3)c2)CCC2CCC(C(=O)NC(c3ccccc3)c3ccccc3)N2C1=O = 12.1
2. C=C(F)C(=O)N1CCN(c2nc(OCC3CCCN3C)nc3c2CCN(c2cccc4cccc(Cl)c24)C3)CC1CC#N (stereo not drawn) + Cc1c(S(C)(=O)=O)c(-c2cc(F)cc(N3CCN(c4ccc(NS(=O)(=O)c5ccc(NC(CCN6CCC(C(=O)OCCCP(=O)(O)O)CC6)CSc6ccccc6)c(S(=O)(=O)C(F)(F)F)c5)cc4)CC3)c2)c(-c2ccc(Cl)cc2)n1C(C)C = 72.7

Ask | Consider the molecule C#Cc1c(F)ccc2cc(O)cc(-c3ncc4c(N5CC6CCC(C5)N6)nc(OCC56CCCN5CC(F)C6)nc4c3F)c12 (stereo not drawn) + CNC(C)C(=O)NC1CN(S(=O)(=O)c2cccc(S(=O)(=O)N3CCC4CCC(C(=O)NC(c5ccccc5)c5ccccc5)N4C(=O)C(NC(=O)C(C)NC)C3)c2)CCC2CCC(C(=O)NC(c3ccccc3)c3ccccc3)N2C1=O tested on MCF7 complex spheroid growth, % test/control; state its viability, T/C.
Reply | 11.4

---

System: MCF7 complex spheroid growth, % test/control
PROCEDURE DETAILS: Anticancer human tumor MCF7 cell line growth inhibition [Asc];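 further: spheroids exposed to compounds for 7 days; 100% = DMSO vehicle control wells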
TEST CONDITIONS: second compound 0.3 µM; first compound 0.01 µM; hits give low values
Description: Multicellular complex tumor spheroid response to apoptosis pathway targeting inhibitors Alrizomadlin, Pelcitoclax, and Dasminapant in combination with a variety of drugs and investigational agents in selected tumor cell lines […] Compounds. […] If the clinical Cmax for an agent had not been determined, the highest concentration tested was 10 microM. […]
Quick list: viability, T/C per entry.
Report the figure in % without appending any unit label.

1. CCN1CCN(Cc2ccc(Nc3ncc(F)c(-c4cc(F)c5nc(C)n(C(C)C)c5c4)n3)nc2)CC1 + CCN1C(C(=O)NC23CCC(C(=O)O)(CC2)CC3)C(c2cccc(Cl)c2F)C2(C(=O)Nc3cc(Cl)ccc32)C12CCCCC2 = 30.2
2. COc1c(OCCCN2CCOCC2)ccc2c3n(c(=NC(=O)c4cnc(N)nc4)nc12)CCN3 + CCN1C(C(=O)NC23CCC(C(=O)O)(CC2)CC3)C(c2cccc(Cl)c2F)C2(C(=O)Nc3cc(Cl)ccc32)C12CCCCC2 = 21.5
3. CNC(C)C(=O)NC1CN(S(=O)(=O)c2cccc(S(=O)(=O)N3CCC4CCC(C(=O)NC(c5ccccc5)c5ccccc5)N4C(=O)C(NC(=O)C(C)NC)C3)c2)CCC2CCC(C(=O)NC(c3ccccc3)c3ccccc3)N2C1=O (stereo unspecified) + CCN1C(C(=O)NC23CCC(C(=O)O)(CC2)CC3)C(c2cccc(Cl)c2F)C2(C(=O)Nc3cc(Cl)ccc32)C12CCCCC2 = 8.53
4. Cn1ncnc1[C@H]1c2n[nH]c(=O)c3cc(F)cc(c23)N[C@@H]1c1ccc(F)cc1 + CCN1C(C(=O)NC23CCC(C(=O)O)(CC2)CC3)C(c2cccc(Cl)c2F)C2(C(=O)Nc3cc(Cl)ccc32)C12CCCCC2 = 32.9
5. O=C(c1ccc(F)c(F)c1Nc1ccc(I)cc1F)N1CC(O)([C@@H]2CCCCN2)C1 + CCN1C(C(=O)NC23CCC(C(=O)O)(CC2)CC3)C(c2cccc(Cl)c2F)C2(C(=O)Nc3cc(Cl)ccc32)C12CCCCC2 = 28

Ask | Return reported viability, T/C. Input compound: NC1CCC(NC2CC2c2ccccc2)CC1 (stereo unspecified) + CCN1C(C(=O)NC23CCC(C(=O)O)(CC2)CC3)C(c2cccc(Cl)c2F)C2(C(=O)Nc3cc(Cl)ccc32)C12CCCCC2
Reply | 40
